Target: UniProt:P21802
Sequence (P21802 22-821 limits assumed): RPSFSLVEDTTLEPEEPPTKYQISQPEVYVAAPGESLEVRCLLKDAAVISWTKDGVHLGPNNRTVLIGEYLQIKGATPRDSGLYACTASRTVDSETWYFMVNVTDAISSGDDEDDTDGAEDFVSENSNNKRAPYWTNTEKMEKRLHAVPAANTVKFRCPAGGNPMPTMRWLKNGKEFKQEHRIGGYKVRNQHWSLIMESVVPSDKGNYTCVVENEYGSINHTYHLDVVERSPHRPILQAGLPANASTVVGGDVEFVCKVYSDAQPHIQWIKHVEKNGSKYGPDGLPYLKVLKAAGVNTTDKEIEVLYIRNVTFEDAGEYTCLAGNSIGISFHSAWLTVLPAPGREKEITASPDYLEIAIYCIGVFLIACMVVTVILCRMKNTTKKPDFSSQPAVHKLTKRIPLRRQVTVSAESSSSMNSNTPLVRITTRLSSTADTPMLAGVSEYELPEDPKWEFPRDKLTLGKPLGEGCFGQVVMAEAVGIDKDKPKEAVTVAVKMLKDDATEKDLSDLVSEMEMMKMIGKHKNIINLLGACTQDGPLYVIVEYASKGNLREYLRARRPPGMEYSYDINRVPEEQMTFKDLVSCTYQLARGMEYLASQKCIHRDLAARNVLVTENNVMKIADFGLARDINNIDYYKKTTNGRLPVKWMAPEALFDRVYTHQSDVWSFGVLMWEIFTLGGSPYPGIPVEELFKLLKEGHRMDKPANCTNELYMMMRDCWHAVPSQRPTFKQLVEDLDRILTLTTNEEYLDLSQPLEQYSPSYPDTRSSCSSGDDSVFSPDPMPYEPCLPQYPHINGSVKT
Conditions: Compound concentration 20.0 uM
Description: Thermal Shift Assay. Domain: start/stop: T457-E768
measuredMetric: ΔTm (°C)
Answers are plain numbers, in °C.

CC(C)c1ccc(C(=O)N=C(N)N)cc1S(C)(=O)=O    -0.34

Please state, for each entry, its recorded ΔTm.
1. O=C(O)/C(S)=C/c1c[nH]c2ccc(F)cc12
2. Cc1ncc(Cl)cc1NCc1ccc(C(=O)N[C@@H](CC2CCCC2)C(=O)NC2CC2)s1
3. O=C1C(=O)N(Cc2ccccc2)c2ccc(S(=O)(=O)N3CCC[C@H]3COc3ccc(C(F)(F)F)cc3)cc21
4. CC(C)(C)OC(=O)Nc1ccc(CNc2nccc(Nc3cc(C(=O)OC(C)(C)C)[nH]n3)n2)cc1
5. CCc1nc2c(C)cc(N3CCN(CC(=O)N4CC(O)C4)CC3)cn2c1N(C)c1nc(-c2ccc(F)cc2)c(C#N)s1

1. 0.66
2. 1.09
3. 1.01
4. 1.22
5. 0.26

Please state, for each entry, its recorded ΔTm.
1. O=c1c2nnc(C3CCOCC3)n2cc(Br)n1CC1CCCC1
2. N#Cc1ccc([C@H]2CCCC[C@H]2O)cc1C(F)(F)F
3. CNC(=O)N1CCc2c(c(N3CCCc4cc(-c5cnn(C)c5)c(C(F)F)cc43)nn2C2CCOCC2)C1

[-0.26, -0.09, -0.44]

Please state, for each entry, its recorded ΔTm.
1. CCN(c1cc(-c2ccc(CN3CCOCC3)cc2)cc(C(=O)NCc2c(C)cc(C)[nH]c2=O)c1C)C1CCOCC1
2. C=CCO/N=C1\c2ccccc2-c2nc(C#N)c(C#N)nc21
3. Cc1cc(OCCCNCCC(N)=O)ccc1Cc1c(O[C@@H]2O[C@H](CO)[C@@H](O)[C@H](O)[C@H]2O)n[nH]c1C(C)C
4. O=c1[nH][nH]c(=O)c2cc(OCC3CCCCC3)ccc12

1. 0.66
2. 0.66
3. 0.45
4. 1.11

* * *

Biological target: Peregrin (Homo sapiens)
Sequence (whole entry): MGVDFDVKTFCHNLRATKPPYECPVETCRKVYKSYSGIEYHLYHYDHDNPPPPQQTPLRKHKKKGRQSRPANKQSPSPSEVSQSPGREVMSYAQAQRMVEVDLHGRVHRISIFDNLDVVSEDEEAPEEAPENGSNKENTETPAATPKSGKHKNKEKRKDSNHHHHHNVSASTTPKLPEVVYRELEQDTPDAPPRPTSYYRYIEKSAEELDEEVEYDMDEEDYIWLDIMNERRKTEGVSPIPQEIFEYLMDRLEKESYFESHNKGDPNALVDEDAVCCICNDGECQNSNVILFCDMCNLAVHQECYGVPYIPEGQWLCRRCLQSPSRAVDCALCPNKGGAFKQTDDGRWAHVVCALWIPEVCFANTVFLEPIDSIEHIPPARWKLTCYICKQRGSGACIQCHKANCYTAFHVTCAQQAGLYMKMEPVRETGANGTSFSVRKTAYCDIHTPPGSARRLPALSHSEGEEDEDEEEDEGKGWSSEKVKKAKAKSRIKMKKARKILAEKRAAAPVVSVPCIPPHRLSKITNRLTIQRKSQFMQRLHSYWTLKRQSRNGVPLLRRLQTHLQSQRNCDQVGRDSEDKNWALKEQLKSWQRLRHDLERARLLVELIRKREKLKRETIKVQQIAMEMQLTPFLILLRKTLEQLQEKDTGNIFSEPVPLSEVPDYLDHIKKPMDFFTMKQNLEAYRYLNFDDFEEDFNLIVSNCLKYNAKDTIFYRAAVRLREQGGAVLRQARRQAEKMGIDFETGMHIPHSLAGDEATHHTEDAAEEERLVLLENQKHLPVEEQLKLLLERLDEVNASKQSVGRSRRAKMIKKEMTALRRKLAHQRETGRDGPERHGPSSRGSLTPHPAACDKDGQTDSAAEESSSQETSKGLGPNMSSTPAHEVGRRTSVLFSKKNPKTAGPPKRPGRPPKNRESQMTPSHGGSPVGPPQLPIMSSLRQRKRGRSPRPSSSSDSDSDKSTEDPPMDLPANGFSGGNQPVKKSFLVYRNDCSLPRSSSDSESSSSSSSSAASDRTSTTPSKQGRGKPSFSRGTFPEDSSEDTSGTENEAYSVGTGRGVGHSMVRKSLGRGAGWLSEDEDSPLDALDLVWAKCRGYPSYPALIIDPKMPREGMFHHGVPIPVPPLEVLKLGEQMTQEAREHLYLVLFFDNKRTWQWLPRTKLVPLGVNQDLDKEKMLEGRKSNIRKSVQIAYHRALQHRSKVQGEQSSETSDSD
Details: Compound concentration 20.0 uM
measuredMetric: ΔTm (°C)
One number for each entry, in °C.

O=C(NO)c1cccc(C(=O)NCCc2ccccc2)c1    -0.84
CC(=Cc1cc(C)ccc1C=C(C)C(=O)NC(=N)N)C(=O)N=C(N)N    -1.11
CC(C)c1c(-c2ccccc2)[nH]c2c(C#N)cnn2c1=O    1.31
CCCOc1cccc(Oc2cc3c(cc2NS(=O)(=O)c2cccc(C(=O)NCCOCCOCCOCC(=O)N[C@H](C(=O)N4C[C@H](O)C[C@H]4C(=O)NCc4ccc(-c5scnc5C)cc4)C(C)(C)C)c2)n(C)c(=O)n3C)c1    1.17
CN1CCc2c(n(Cc3ccc(C(=O)NO)cc3)c3ccccc23)C1    -0.68

Please state, for each entry, its recorded ΔTm.
1. CC(C)N(CCCNC(=O)Nc1ccc(C(C)(C)C)cc1)C[C@H]1O[C@@H](n2ccc3c(N)ncnc32)[C@H](O)[C@@H]1O
2. COc1ccc(-c2ccc3c(c2)COC3=O)n2nc(C3(C(=O)OCC(C)C)CC3)nc12
3. C/C=C1\NC(=O)[C@H]2CSSCC/C=C/[C@H](CC(=O)N[C@H](C(C)C)C(=O)N2)OC(=O)[C@H](C(C)C)NC1=O

1. -2.69
2. 0.76
3. 0

* * *

Target: Peregrin (Homo sapiens) (UniProt P55201)
Sequence (whole entry): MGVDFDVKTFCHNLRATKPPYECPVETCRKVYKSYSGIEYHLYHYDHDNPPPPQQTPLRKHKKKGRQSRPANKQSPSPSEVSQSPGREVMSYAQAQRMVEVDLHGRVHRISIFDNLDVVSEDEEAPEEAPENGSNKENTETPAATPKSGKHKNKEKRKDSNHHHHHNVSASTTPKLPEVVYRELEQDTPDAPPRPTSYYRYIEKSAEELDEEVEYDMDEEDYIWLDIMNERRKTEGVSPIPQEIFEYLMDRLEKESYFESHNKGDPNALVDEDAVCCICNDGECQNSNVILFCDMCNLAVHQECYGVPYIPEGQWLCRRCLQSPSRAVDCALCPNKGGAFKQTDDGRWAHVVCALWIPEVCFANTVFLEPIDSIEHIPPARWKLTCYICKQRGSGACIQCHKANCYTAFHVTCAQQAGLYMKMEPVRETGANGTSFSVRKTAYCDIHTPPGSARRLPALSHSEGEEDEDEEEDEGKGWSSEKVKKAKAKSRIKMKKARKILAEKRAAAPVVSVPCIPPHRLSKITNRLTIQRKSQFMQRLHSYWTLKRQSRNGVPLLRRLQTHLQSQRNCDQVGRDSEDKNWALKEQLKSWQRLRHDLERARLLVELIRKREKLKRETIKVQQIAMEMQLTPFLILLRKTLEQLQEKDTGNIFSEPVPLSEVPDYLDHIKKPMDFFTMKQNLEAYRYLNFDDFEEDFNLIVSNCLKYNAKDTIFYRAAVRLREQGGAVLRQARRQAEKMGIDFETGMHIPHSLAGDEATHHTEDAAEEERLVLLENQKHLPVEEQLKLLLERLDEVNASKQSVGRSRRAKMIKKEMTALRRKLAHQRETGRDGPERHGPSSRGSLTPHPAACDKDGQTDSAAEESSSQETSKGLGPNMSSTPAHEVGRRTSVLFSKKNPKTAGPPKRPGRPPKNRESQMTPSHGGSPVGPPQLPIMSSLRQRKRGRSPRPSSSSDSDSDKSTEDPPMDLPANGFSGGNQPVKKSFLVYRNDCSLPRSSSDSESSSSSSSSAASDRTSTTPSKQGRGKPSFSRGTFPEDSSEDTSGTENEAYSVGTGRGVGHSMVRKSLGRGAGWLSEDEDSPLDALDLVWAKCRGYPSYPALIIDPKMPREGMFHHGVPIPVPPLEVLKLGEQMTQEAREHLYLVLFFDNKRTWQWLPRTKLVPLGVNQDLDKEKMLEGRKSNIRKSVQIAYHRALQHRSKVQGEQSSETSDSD
Settings: Compound concentration 20.0 uM
Residues, ends and D or L forms follow the SMILES beside them.
measuredMetric: ΔTm (°C)
Answers are plain numbers, in °C.

Examples with answers:
Cc1cc(C)c(-c2[nH]nc(C)c2C)cc1C(=O)N1CC(c2ccc(C#N)cc2)C1    -1.03
CSCC[C@H](NC(=O)[C@H](CC(=O)O)NC(C)=O)C(=O)N[C@@H](CCC(N)=O)C(=O)N[C@H](C=O)CC(=O)O (Ac-DMQD-aldehyde)    -1.78

Please state, for each entry, its recorded ΔTm.
1. N[C@@H](CC(=O)N1CCN(C(c2ccc(F)cc2)c2ccc(F)cc2)CC1)C(=O)N1Cc2ccccc2C1
2. Cc1ccc(NC2=CC(=O)c3sc(C)nc3C2=O)cc1
3. CC(C)Nc1cc(-c2c[nH]c(C(=O)N[C@H](CO)c3cccc(Cl)c3)c2)c(Cl)cn1
4. CCn1ncc2c(NC3CCOCC3)c(-c3nnc(Cc4sc(C)nc4C)o3)cnc21
5. FC(F)(F)Cn1cc(-c2ccncc2)c(-c2ccc(OCc3ccc4ccccc4n3)cc2)n1
6. CCCNC(=O)[C@H]1O[C@@H]1C(=O)N[C@H](C(=O)N1CCC[C@H]1C(=O)O)[C@@H](C)CC

[-1.34, -1.72, 0.61, 0.65, 0.9, -2.2]

Cited source for all entries: ChEMBL document CHEMBL5724796
